experiment-notes: Growth inhibition of human HONE1 cells
Format: functional
Mark satisfied only for GI50 values smaller than 3 µM; exact matches and larger values are not satisfied.

Past entries and their recorded results:
molecule	class-name
CCN1CCc2c(c3cc(OC)c(OC)cc3c3cc(OC)c(OC)cc23)C1	satisfied
CCCN1Cc2c(c3cc(OC)c(OC)c(OC)c3c3cc(OC)c(OC)cc23)C(O)C1 (stereo not given)	satisfied
COc1cc2c3c(c4cc(OC)c(OC)cc4c2cc1OC)CN(CCCN)CC3	not satisfied
COc1cc2c3c(c4cc(OC)c(OC)cc4c2cc1OC)C(O)CN(C(C)C)C3 (stereo not given)	satisfied
COc1cc2c3c(c4cc(OC)c(OC)cc4c2cc1OC)CN1CCC[C@@H]1C3 [TYLOPHORINE]	satisfied

QUERY: Problem: For the molecule CCCCN1CCc2c(c3cc(OC)c(OC)cc3c3cc(OC)ccc23)C1 , is GI50 under 3 µM?
RESULT: not satisfied

QUERY: Please state whether GI50 is below 3 µM for CCCN1CCc2c(c3ccc(OC)cc3c3cc(OC)c(OC)cc23)C1
RESULT: not satisfied

QUERY: Strictly below 3 µM in GI50? CCCCCN1CCc2c(c3cc(OC)c(OC)cc3c3cc(OC)c(OC)cc23)C1
RESULT: not satisfied

QUERY: Just wondering, is GI50 of CCN1Cc2c(c3ccc(OC)cc3c3cc(OC)c(OC)cc23)C(O)C1 (stereo not given) below 3 µM?
RESULT: satisfied

QUERY: Here's an entry: CCCN1Cc2c(c3ccc(OC)cc3c3cc(OC)c(OC)cc23)C(O)C1 (stereo not given) . Is its GI50 below 3 µM?
RESULT: satisfied

###

experiment-notes: Growth inhibition of human HONE1 cells
Type: functional
test-readout: GI50 (nM)
Give the number; nM is assumed, so skip it.

compound	test-readout	readout-value
COc1cc2c3c(c4cc(OC)c(OC)cc4c2cc1OC)CN(C(C)C)CC3	GI50	940
CCCCN1CCc2c(c3cc(OC)c(OC)cc3c3c(OC)c(OC)c(OC)cc23)C1	GI50	4060
CC(=O)O[C@H]1C(=O)[C@@]2(C)[C@H]([C@H](OC(=O)c3ccccc3)[C@]3(O)C[C@H](OC(=O)[C@H](O)[C@@H](NC(=O)c4ccccc4)c4ccccc4)C(C)=C1C3(C)C)[C@]1(OC(C)=O)CO[C@@H]1C[C@@H]2O	GI50	20
CCC(C)N1CCc2c(c3cc(OC)c(OC)cc3c3cc(OC)c(OC)cc23)C1 (stereo not given)	GI50	1150
COc1ccc(C2=C(c3ccc(OC)c(OC)c3)CN3CCC[C@H]3C2)cc1OC	GI50	17300

QUERY: Any idea what GI50 was measured for COc1cc2c3c(c4cc(OC)c(OC)cc4c2cc1OC)CN(C1C=CCCC1)CC3 (stereo not given) ?
RESULT: 2530

QUERY: Look at this compound and give its reported GI50. CCCCN1Cc2c(c3ccc(OC)cc3c3cc(OC)c(OC)cc23)C(O)C1 (stereo not given)
RESULT: 3000

###

experiment-notes: Growth inhibition of human HONE1 cells
Assay type: functional
test-readout: GI50 (µM)
Your answer is read as µM, so omit the unit and give the number.

In [3]: df
Out[3]:
                                   compound  quantity_unit  readout_value
0  CCCN1CCc2c(c3cc(OC)c(OC)cc3c3cc(OC)c(OC)cc23)C1             µM           1.21
1  COc1cc2c3c(c4cc(OC)c(OC)c(OC)c4c2cc1OC)CCN(C(C)C)C3             µM           1.12

QUERY: What does the data say about its GI50? Entry: COc1cc2c3c(c4cc(OC)c(OC)cc4c2cc1OC)CN(CCC1OCCO1)CC3
RESULT: 6.13

QUERY: Which GI50 is listed for CCN1CCc2c(c3cc(OC)c(OC)cc3c3cc(OC)ccc23)C1 ?
RESULT: 0.57

QUERY: Could you share which GI50 value was measured for COc1cc2c3c(c4cc(OC)c(OC)cc4c2cc1OC)CN(CC1OCCO1)CC3 ?
RESULT: 22.1

QUERY: # GI50 lookup, item COc1cc2c3c(c4cc(OC)c(OC)cc4c2cc1OC)CN1CCCCCC1C3 (stereo not drawn)
RESULT: 1.15

QUERY: Looking for the measured GI50 of COc1cc2c3c(c4cc(OC)c(OC)cc4c2cc1OC)CN(CCCNC(=O)OC(C)(C)C)CC3 , can you help?
RESULT: 4.52

###

Known GI50 of a selection of compounds
experiment-notes: Growth inhibition of human HONE1 cells
Assay type: functional
Reply with just the number (in µM).

>>> df
                                   compound  quantity_unit  readout_value
0  COc1cc2c3c(c4cc(OC)c(OC)cc4c2cc1OC)CN(CCCOC1CCCCO1)CC3 (stereo unspecified)             µM           9.65
1  COc1cc2c3c(c4cc(OC)c(OC)cc4c2cc1OC)CN(CCCO)CC3             µM           16.6

QUERY: Entry under review: CCCN1CCc2c(c3cc(OC)c(OC)cc3c3cc(OC)ccc23)C1 . Reported GI50?
RESULT: 0.77

QUERY: Fill in: GI50 of CCN1CCc2c(c3cc(OC)ccc3c3cc(OC)c(OC)cc23)C1 is ___
RESULT: 4.87

QUERY: Reported GI50, compound CCCCN1CCc2c(c3cc(OC)c(OC)cc3c3cc(OC)c(OC)cc23)C1 : ____
RESULT: 2.75

QUERY: // lookup GI50 for CCCN1CCc2c(c3cc(OC)ccc3c3c(OC)c(OC)ccc23)C1
RESULT: 4.75
